system: Mycobacterium tuberculosis H37Rv; test: Inhibition of QCR2 M342T mutant in Mycobacterium tuberculosis H37Rv harboring cyd deletion mutant assessed as reduction in bacterial growth relative to wild-type QCR2
A collection of compounds and their measured fold change (FC)
In your answer, state the number alone without any accompanying words.

For orientation, consider the following solved cases.
[
  {
    "smiles-notation": "COc1ccc2nc(C)cc(OCC(=O)Nc3ccccc3OC)c2c1",
    "fold change (FC)": 1.4
  },
  {
    "smiles-notation": "COc1ccc(NC(=O)COc2cc(C)nc3ccc(OC)cc23)cc1",
    "fold change (FC)": 4.1
  },
  {
    "smiles-notation": "COc1ccc2nc(C)cc(OCC(=O)NCc3ccccc3)c2c1",
    "fold change (FC)": 3
  },
  {
    "smiles-notation": "COc1ccc2nc(C)cc(OCC(=O)Nc3ccc4c(c3)OCO4)c2c1",
    "fold change (FC)": 2.1
  },
  {
    "smiles-notation": "COc1ccc2nc(C)cc(OCC(=O)Nc3ccccc3)c2c1",
    "fold change (FC)": 3.8
  }
]

Requested read-out: fold change (FC). Entry: Nc1ccc(C(=O)O)c(O)c1
0.3

What does the data say about its fold change (FC)? Entry: c1ccc(Cn2cnc3c(-c4ccco4)nccc32)cc1
20.2

* * *

tested on: Mycobacterium tuberculosis H37Rv; experiment: Inhibition of QCR7 S182T mutant in Mycobacterium tuberculosis H37Rv harboring cyd deletion mutant assessed as reduction in bacterial growth relative to wild-type QCR7
readout-name: fold change (FC)

Recorded results for 2 compounds are shown here.
[
  {
    "smiles-notation": "COc1ccc2nc(C)cc(OCC(=O)Nc3ccc4c(c3)OCO4)c2c1",
    "result": 32.9
  },
  {
    "smiles-notation": "c1ccc(Cn2cnc3c(-c4ccco4)nccc32)cc1",
    "result": 61.3
  }
]

Then there is this compound:
Which fold change (FC) reading was recorded for the compound COc1ccc2nc(C)cc(OCC(=O)NCc3ccccc3)c2c1 ?
15.7

* * *

tested on: Mycobacterium tuberculosis H37Rv; assay: Inhibition of QCR7 S182T mutant in Mycobacterium tuberculosis H37Rv harboring cyd deletion mutant assessed as reduction in bacterial growth relative to wild-type QCR7
Parameter: fold change (FC). Scope: all listed entries.
Reply briefly: the number, and no unit.

Answered cases to consult:
[
  {
    "compound": "Nc1ccc(C(=O)O)c(O)c1 [AMINOSALICYLIC ACID]",
    "fold change (FC)": 0.5
  },
  {
    "compound": "COc1ccc(NC(=O)COc2cc(C)nc3ccc(OC)cc23)cc1",
    "fold change (FC)": 15.9
  },
  {
    "compound": "COc1ccc2nc(C)cc(OCC(=O)Nc3ccccc3OC)c2c1",
    "fold change (FC)": 15.9
  }
]

Give recorded fold change (FC) with Mycobacterium tuberculosis H37Rv for the following compound: COc1ccc2nc(C)cc(OCC(=O)Nc3ccccc3)c2c1
19.5

* * *

tested on: Mycobacterium tuberculosis H37Rv; assay: Inhibition of QCR3 W312G mutant in Mycobacterium tuberculosis H37Rv harboring cyd deletion mutant assessed as reduction in bacterial growth relative to wild-type QCR3
This section presents compounds with their documented fold change (FC) values.

[
  {
    "smiles-notation": "COc1ccc(NC(=O)COc2cc(C)nc3ccc(OC)cc23)cc1",
    "system-under-test": "Mycobacterium tuberculosis H37Rv",
    "readout-name": "fold change (FC)",
    "result": 24.5
  },
  {
    "smiles-notation": "COc1ccc2nc(C)cc(OCC(=O)Nc3ccc(C)cc3)c2c1",
    "system-under-test": "Mycobacterium tuberculosis H37Rv",
    "readout-name": "fold change (FC)",
    "result": "> 16.3"
  },
  {
    "smiles-notation": "COc1ccc2nc(C)cc(OCC(=O)NCc3ccccc3)c2c1",
    "system-under-test": "Mycobacterium tuberculosis H37Rv",
    "readout-name": "fold change (FC)",
    "result": 47
  },
  {
    "smiles-notation": "c1ccc(Cn2cnc3c(-c4ccco4)nccc32)cc1",
    "system-under-test": "Mycobacterium tuberculosis H37Rv",
    "readout-name": "fold change (FC)",
    "result": "> 81"
  }
]

Quick one: fold change (FC) of COc1ccc2nc(C)cc(OCC(=O)Nc3ccccc3)c2c1 ?
235

Query (compound): COc1ccc2nc(C)cc(OCC(=O)NCc3ccc4c(c3)OCO4)c2c1 ; field requested: fold change (FC)
> 25

Query: fold change (FC); subject: Nc1ccc(C(=O)O)c(O)c1
0.5

Which fold change (FC) value belongs to COc1ccc2nc(C)cc(OCC(=O)Nc3ccc4c(c3)OCO4)c2c1 ?
17.1

Request the reported fold change (FC) associated with COc1ccc2nc(C)cc(OCC(=O)Nc3ccccc3OC)c2c1
46.9

* * *

In this section we review reported fold change (FC) values for a set of molecules.
test system: Mycobacterium tuberculosis H37Rv; assay: Inhibition of QCR4 A396T mutant in Mycobacterium tuberculosis H37Rv harboring cyd deletion mutant assessed as reduction in bacterial growth relative to wild-type QCR4
Give the figure by itself; no unit, no explanation.

Guide cases for fold change (FC), answers given:
[
  {
    "smiles-notation": "COc1ccc2nc(C)cc(OCC(=O)Nc3ccccc3OC)c2c1",
    "system-under-test": "Mycobacterium tuberculosis H37Rv",
    "readout-name": "fold change (FC)",
    "number": 4.1
  },
  {
    "smiles-notation": "COc1ccc2nc(C)cc(OCC(=O)Nc3ccc4c(c3)OCO4)c2c1",
    "system-under-test": "Mycobacterium tuberculosis H37Rv",
    "readout-name": "fold change (FC)",
    "number": 5.6
  },
  {
    "smiles-notation": "c1ccc(Cn2cnc3c(-c4ccco4)nccc32)cc1",
    "system-under-test": "Mycobacterium tuberculosis H37Rv",
    "readout-name": "fold change (FC)",
    "number": 20.2
  },
  {
    "smiles-notation": "Nc1ccc(C(=O)O)c(O)c1",
    "system-under-test": "Mycobacterium tuberculosis H37Rv",
    "readout-name": "fold change (FC)",
    "number": 0.3
  }
]

# query: fold change (FC) | item COc1ccc(NC(=O)COc2cc(C)nc3ccc(OC)cc23)cc1 | system: Mycobacterium tuberculosis H37Rv
3.1

* * *

system: Mycobacterium tuberculosis H37Rv; test: Inhibition of QCR1 A317V mutant in Mycobacterium tuberculosis H37Rv harboring cyd deletion mutant assessed as reduction in bacterial growth relative to wild-type QCR1
Below, each of the molecules is paired with its reported fold change (FC) value.

Some solved entries appear below for comparison.
[
  {
    "smiles-notation": "COc1ccc2nc(C)cc(OCC(=O)Nc3ccccc3OC)c2c1",
    "fold change (FC)": 46.9
  },
  {
    "smiles-notation": "COc1ccc(NC(=O)COc2cc(C)nc3ccc(OC)cc23)cc1",
    "fold change (FC)": 63.9
  },
  {
    "smiles-notation": "Nc1ccc(C(=O)O)c(O)c1",
    "fold change (FC)": 0.5
  },
  {
    "smiles-notation": "COc1ccc2nc(C)cc(OCC(=O)Nc3ccc4c(c3)OCO4)c2c1",
    "fold change (FC)": 134
  },
  {
    "smiles-notation": "COc1ccc2nc(C)cc(OCC(=O)NCc3ccc4c(c3)OCO4)c2c1",
    "fold change (FC)": "> 130"
  }
]

Would you kindly look at the next entry?
Recorded fold change (FC) of COc1ccc2nc(C)cc(OCC(=O)Nc3ccccc3)c2c1 , please.
> 1250

* * *

system: Mycobacterium tuberculosis H37Rv; assay: Inhibition of QCR1 A317V mutant in Mycobacterium tuberculosis H37Rv harboring cyd deletion mutant assessed as reduction in bacterial growth relative to wild-type QCR1
readout-name: fold change (FC)

Given the entry c1ccc(Cn2cnc3c(-c4ccco4)nccc32)cc1 , what fold change (FC) was observed with Mycobacterium tuberculosis H37Rv?
> 81

// lookup fold change (FC) | system=Mycobacterium tuberculosis H37Rv | key= COc1ccc2nc(C)cc(OCC(=O)NCc3ccccc3)c2c1
> 250

Hello, I am looking for reported fold change (FC) with Mycobacterium tuberculosis H37Rv for COc1ccc2nc(C)cc(OCC(=O)Nc3ccc(C)cc3)c2c1 . Could you help?
> 32.5

* * *

tested on: Mycobacterium tuberculosis H37Rv; test: Inhibition of QCR5 M342I mutant in Mycobacterium tuberculosis H37Rv harboring cyd deletion mutant assessed as reduction in bacterial growth relative to wild-type QCR5
Overview of reported fold change (FC) across a group of compounds:
Hey, just send me the number, nothing else.

Here is how some compounds turned out for fold change (FC).
[
  {
    "compound": "c1ccc(Cn2cnc3c(-c4ccco4)nccc32)cc1",
    "system-under-test": "Mycobacterium tuberculosis H37Rv",
    "number": 20.2
  },
  {
    "compound": "COc1ccc2nc(C)cc(OCC(=O)NCc3ccccc3)c2c1",
    "system-under-test": "Mycobacterium tuberculosis H37Rv",
    "number": 3.9
  }
]

API: value(readout= fold change (FC), system= Mycobacterium tuberculosis H37Rv, query= COc1ccc2nc(C)cc(OCC(=O)Nc3ccccc3OC)c2c1 )
6.1

What is its fold change (FC) for Mycobacterium tuberculosis H37Rv? Entry: COc1ccc2nc(C)cc(OCC(=O)Nc3ccccc3)c2c1
1.8

Give Mycobacterium tuberculosis H37Rv fold change (FC) for Nc1ccc(C(=O)O)c(O)c1 [AMINOSALICYLIC ACID]
0.5

Could you share what fold change (FC) was measured for COc1ccc2nc(C)cc(OCC(=O)Nc3ccc4c(c3)OCO4)c2c1 , tested on Mycobacterium tuberculosis H37Rv?
1.4

Source of measurements: ChEMBL document CHEMBL4190162
